biological target: Recombinant human MASP2 enzyme (fragment corresponding to amino acids 297-686, C-terminal His Tag) (human, UniProt O00187 297-686); assay: cell-based or functional assay
Sequence (O00187 other isoform, or with tags, fused parts or gaps limits assumed): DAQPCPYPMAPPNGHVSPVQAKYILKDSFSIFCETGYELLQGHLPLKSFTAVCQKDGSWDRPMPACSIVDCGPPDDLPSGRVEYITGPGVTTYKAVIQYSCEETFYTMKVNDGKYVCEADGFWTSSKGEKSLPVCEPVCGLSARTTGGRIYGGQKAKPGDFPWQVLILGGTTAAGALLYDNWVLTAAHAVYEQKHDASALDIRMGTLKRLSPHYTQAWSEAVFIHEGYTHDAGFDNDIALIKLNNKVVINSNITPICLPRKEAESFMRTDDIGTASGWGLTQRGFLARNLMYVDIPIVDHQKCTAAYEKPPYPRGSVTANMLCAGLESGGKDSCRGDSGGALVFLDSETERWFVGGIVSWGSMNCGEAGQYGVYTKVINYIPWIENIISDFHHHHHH
Numbered stars: 1 amine (or outer) side, 2 acyl side, 3 side chain; on linkers, the order of the positions; unused ones are H or OH. Bridge positions count the residues as written; N and C are the ends. Square brackets hold non-standard residues; d marks the D form. Ends that are not written are not given here. X11 = (S)‑Piperidine‑3‑carboxylic acid, O=C([C@H]1CCCN([*:1])C1)[*:2]; NHCH2(1,3-C6H4)CH2CO = O=C(Cc1cccc(CN[*:1])c1)[*:2]; Pro(3S,4R-methano) = O=C(O)[C@H]1NC[C@@H]2C[C@@H]21; Phe(3-COOH) = N[C@@H](Cc1cccc(C(=O)O)c1)C(=O)O; Oic = O=C(O)[C@@H]1C[C@@H]2CCCC[C@@H]2N1; tBuAla = CC(C)(C)C[C@H](N)C(=O)O; Pen = CC(C)(S)[C@H](N)C(=O)O; NMeC = CN[C@@H](CS)C(=O)O; Orn = NCCC[C@H](N)C(=O)O; Sar = CNCC(=O)O
binders and their reported human MASP2 IC50
readout_type: human MASP2 IC50

• [Sar]ICSRS[tBuAla]P[Pro(3S,4R-methano)]I[Pen]IPD-OH (disulfide 3-11; N-terminus assumed; SMILES CC[C@H](C)[C@H](NC(=O)CNC)C(=O)N[C@H]1CSSC(C)(C)[C@@H](C(=O)N[C@H](C(=O)N2CCC[C@H]2C(=O)N[C@@H](CC(=O)O)C(=O)O)[C@@H](C)CC)NC(=O)[C@H]([C@@H](C)CC)NC(=O)[C@@H]2[C@H]3C[C@H]3CN2C(=O)[C@@H]2CCCN2C(=O)[C@H](CC(C)(C)C)NC(=O)[C@H](CO)NC(=O)[C@H](CCCNC(=N)N)NC(=O)[C@H](CO)NC1=O) [((N-Me)G)-IC+SRS-((tBu)A)-P-((1S,2S,5R)-3-azabicyclo[3.1.0]hexane-2-carboxylic acid)-I-(Pen)+IPD-OH] = 104 nM
• [Orn]ICSRS[tBuAla]PPI[NMeC]IPD-OH (disulfide 3-11; N-terminus assumed; SMILES CC[C@H](C)[C@H](NC(=O)[C@@H](N)CCCN)C(=O)N[C@H]1CSSC[C@@H](C(=O)N[C@H](C(=O)N2CCC[C@H]2C(=O)N[C@@H](CC(=O)O)C(=O)O)[C@@H](C)CC)N(C)C(=O)[C@H]([C@@H](C)CC)NC(=O)[C@@H]2CCCN2C(=O)[C@@H]2CCCN2C(=O)[C@H](CC(C)(C)C)NC(=O)[C@H](CO)NC(=O)[C@H](CCCNC(=N)N)NC(=O)[C@H](CO)NC1=O) [(Orn)-IC+SRS-((tBu)A)-PPI-((N-Me)C)+IPD-OH] = 175 nM
• [Sar]ICSRSLP[Oic]I[Pen]IPGD-OH (disulfide 3-11; N-terminus assumed; SMILES CC[C@H](C)[C@H](NC(=O)CNC)C(=O)N[C@H]1CSSC(C)(C)[C@@H](C(=O)N[C@H](C(=O)N2CCC[C@H]2C(=O)NCC(=O)N[C@@H](CC(=O)O)C(=O)O)[C@@H](C)CC)NC(=O)[C@H]([C@@H](C)CC)NC(=O)[C@@H]2C[C@@H]3CCCC[C@@H]3N2C(=O)[C@@H]2CCCN2C(=O)[C@H](CC(C)C)NC(=O)[C@H](CO)NC(=O)[C@H](CCCNC(=N)N)NC(=O)[C@H](CO)NC1=O) [((N-Me)G)-IC+SRSLP-(Oic)-I-(Pen)+IPGD-OH] = 45 nM
• [Sar]ICSRSLP[Oic]I[Pen]IP[NHCH2(1,3-C6H4)CH2CO]-OH (disulfide 3-11; N-terminus assumed; SMILES CC[C@H](C)[C@H](NC(=O)CNC)C(=O)N[C@H]1CSSC(C)(C)[C@@H](C(=O)N[C@H](C(=O)N2CCC[C@H]2C(=O)NCc2cccc(CC(=O)O)c2)[C@@H](C)CC)NC(=O)[C@H]([C@@H](C)CC)NC(=O)[C@@H]2C[C@@H]3CCCC[C@@H]3N2C(=O)[C@@H]2CCCN2C(=O)[C@H](CC(C)C)NC(=O)[C@H](CO)NC(=O)[C@H](CCCNC(=N)N)NC(=O)[C@H](CO)NC1=O) [((N-Me)G)-IC+SRSLP-(Oic)-I-(Pen)+IP-(3-Aminomethylphenylacetic acid)-OH] = 172 nM
• [X11]ICSRSLP[Oic]I[Pen]I-OH (disulfide 3-11; N-terminus assumed; SMILES CC[C@H](C)[C@H](NC(=O)[C@H]1NC(=O)[C@H]([C@@H](C)CC)NC(=O)[C@@H]2C[C@@H]3CCCC[C@@H]3N2C(=O)[C@@H]2CCCN2C(=O)[C@H](CC(C)C)NC(=O)[C@H](CO)NC(=O)[C@H](CCCNC(=N)N)NC(=O)[C@H](CO)NC(=O)[C@@H](NC(=O)[C@@H](NC(=O)[C@H]2CCCNC2)[C@@H](C)CC)CSSC1(C)C)C(=O)O) [((S)-Piperidine-3-carboxylic acid)-IC+SRSLP-(Oic)-I-(Pen)+I-OH] = 140 nM
• [Sar]ICSRSLP[Oic]I[Pen]IP[Phe(3-COOH)]-OH (disulfide 3-11; N-terminus assumed; SMILES CC[C@H](C)[C@H](NC(=O)CNC)C(=O)N[C@H]1CSSC(C)(C)[C@@H](C(=O)N[C@H](C(=O)N2CCC[C@H]2C(=O)N[C@@H](Cc2cccc(C(=O)O)c2)C(=O)O)[C@@H](C)CC)NC(=O)[C@H]([C@@H](C)CC)NC(=O)[C@@H]2C[C@@H]3CCCC[C@@H]3N2C(=O)[C@@H]2CCCN2C(=O)[C@H](CC(C)C)NC(=O)[C@H](CO)NC(=O)[C@H](CCCNC(=N)N)NC(=O)[C@H](CO)NC1=O) [((N-Me)G)-IC+SRSLP-(Oic)-I-(Pen)+IP-((3-Carboxy)F)-OH] = 64 nM
• [Sar]ICSRSLP[Oic]I[Pen]IPT-OH (disulfide 3-11; N-terminus assumed; SMILES CC[C@H](C)[C@H](NC(=O)CNC)C(=O)N[C@H]1CSSC(C)(C)[C@@H](C(=O)N[C@H](C(=O)N2CCC[C@H]2C(=O)N[C@H](C(=O)O)[C@@H](C)O)[C@@H](C)CC)NC(=O)[C@H]([C@@H](C)CC)NC(=O)[C@@H]2C[C@@H]3CCCC[C@@H]3N2C(=O)[C@@H]2CCCN2C(=O)[C@H](CC(C)C)NC(=O)[C@H](CO)NC(=O)[C@H](CCCNC(=N)N)NC(=O)[C@H](CO)NC1=O) [((N-Me)G)-IC+SRSLP-(Oic)-I-(Pen)+IPT-OH] = 180 nM
